All figures here come from patent US12448399B2.

tested_on: KRas-G12D (Homo sapiens, UniProt P01116, G12D)
Construct: insert the HiBiT tag onto the N-terminus of one or more of the endogenous KRas alleles; host or cells: AsPC-1 HiBiT-KRasG12D knock-in clone (one tagged allele, two untagged KRasG12D alleles)
Sequence (P01116 1-188 isoform P01116-2 G12D): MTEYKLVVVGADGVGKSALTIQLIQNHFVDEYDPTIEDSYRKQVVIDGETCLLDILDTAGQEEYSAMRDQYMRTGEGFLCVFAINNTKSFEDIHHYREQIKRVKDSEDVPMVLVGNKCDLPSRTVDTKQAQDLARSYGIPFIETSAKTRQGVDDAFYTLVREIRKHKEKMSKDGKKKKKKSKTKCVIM
test_summary: HiBiT Degradation Assay (G12D), AsPC-1 HiBiT-KRasG12D cells, 24 hr
Assay type: cell-based
test_settings: AsPC-1 cells
recorded_endpoint: DC50

The examples below pair each entry with its known result.
{"compound": "C#Cc1c(F)ccc2cc(O)cc(-c3ncc4c(N5CC6CCC(C5)N6)nc(OCCN5CCC6(CC5)CCN(CC5CCN(c7ccc8c(c7F)n(C(C)C)c(=O)n8C7CCC(=O)NC7=O)CC5)CC6)nc4c3F)c12 (stereo not shown) [Compound 203]", "result": "< 5.1 µM"}
{"compound": "C#Cc1c(F)ccc2cc(O)cc(-c3ncc4c(N5CC6CCC(C5)N6)nc(N5CC[C@@H](N6CCC(CC7CCN(c8ccc9c(c8)n(C)c(=O)n9C8CCC(=O)NC8=O)CC7)CC6)C5)nc4c3F)c12 (stereo partly shown) [Compound 236]", "result": "< 5.1 µM"}
{"compound": "C#Cc1c(F)ccc2cccc(-c3ncc4c(N5CC6CCC(C5)N6)nc(OC[C@]56CCCN5[C@H](CN5CCN(CC7CCN(c8ccc9c(c8)CN(C8CCC(=O)NC8=O)C9=O)CC7)CC5)CC6)nc4c3F)c12 (stereo partly shown) [Compound 143]", "result": "< 5.1 µM"}
{"compound": "C#Cc1c(F)ccc2cc(O)cc(-c3ncc4c(N5CC6CCC(C5)N6)nc(OCCN5CCC(CN6CCN(CC7CCN(c8ccc9c(c8F)n(C(C)C)c(=O)n9C8CCC(=O)NC8=O)CC7)CC6)CC5)nc4c3F)c12 (stereo not shown) [Compound 159]", "result": "< 5.1 µM"}

# return DC50 for each item in the list
1. CCc1cccc2cc(O)cc(-c3ncc4c(N5CC6CCC(C5)N6)nc(OC[C@]56CCCN5[C@@H](COC(=O)N5CCN(c7cccc8c7C(=O)N(C7CCC(=O)NC7=O)C8=O)CC5)CC6)nc4c3F)c12 (stereo partly shown) [Compound 65]
2. C#Cc1c(F)ccc2cc(O)cc(-c3ncc4c(N5CC6CCC(C5)N6)nc(OCCN5CCC(CN6CCN(CC7CCN(c8ccc9c(c8)n(C)c(=O)n9C8CCC(=O)NC8=O)CC7)CC6)CC5)nc4c3F)c12 (stereo not shown) [Compound 221]
3. C#Cc1c(F)ccc2cc(O)cc(-c3ncc4c(N5CC6CCC(C5)N6)nc(OCCN5CCC(CC6CCN(CC7CCN(c8cc(F)cc9c8CN(C8CCC(=O)NC8=O)C9=O)CC7)CC6)CC5)nc4c3F)c12 (stereo not shown) [Compound 130]
4. CCc1cccc2cc(O)cc(-c3ncc4c(C5CC6CCC(C5)N6)nc(OC[C@@H]5C[C@@H](OC6CCN(CC7CCN(c8ccc9c(c8)CN(C8CCC(=O)NC8=O)C9=O)CC7)CC6)CN5C)nc4c3F)c12 (stereo partly shown) [Compound 71]
5. C#Cc1c(F)ccc2cc(O)cc(-c3ncc4c(N5CC6CCC(C5)N6)nc(OCCN5CCC(CC6CCN(CC7(F)CCN(c8cccc9c8CN(C8CCC(=O)NC8=O)C9=O)CC7)CC6)CC5)nc4c3F)c12 (stereo not shown) [Compound 125]
6. CCc1cccc2cc(O)cc(-c3ncc4c(N5CC6CCC(C5)N6)nc(OCCN5CCC(Cn6cccc(CN7CCC(=O)NC7=O)c6=O)CC5)nc4c3F)c12 [Compound 16]

Key:
["0.25 to 1 µM", "< 5.1 µM", "< 5.1 µM", "< 5.1 µM", "< 5.1 µM", "> 1 µM"]
